Test system: T-47D breast
test summary: NCI-60 one-dose screen, 48 h (100 = growth as untreated, 0 = no growth, -100 = all killed)
condition details: 10 µM unless noted
The panel holds about 83,000 compounds, 20% with a hit somewhere; the sample as a whole holds those more often. The source made the active and inactive calls. Rule for the calls: active = growth percent below 10; inactive = the rest.
value kind: growth

[[record]]
smiles_structure = "C#C[C@]1(O)CC[C@H]2[C@@H]3CC=C4c5nc(Nc6ncccn6)sc5CC[C@]4(C)[C@H]3CC[C@@]21C"
measured = "40% (inactive)"

[[record]]
smiles_structure = "O=c1cc(-c2ccccc2)oc2cc(OCc3cn(Cc4ccc(F)cc4)nn3)cc(O)c12"
measured = "44.2% [100 µM] (inactive)"

[[record]]
smiles_structure = "[2H]C1([2H])CCN(C(=O)C2CC2)c2cc(NS(=O)(=O)c3ccc(-c4cccc(C(N)=O)c4)cc3)ccc21"
measured = "19.5% (inactive)"

[[record]]
smiles_structure = "CCN(CC)CCCCCCNc1cccc2cc(Br)cnc12"
measured = "112% (inactive)"

[[record]]
smiles_structure = "CCOc1ccc(S(=O)(=O)Nc2ccc3c(c2)N(S(=O)(=O)CC)CCC3)cc1"
measured = "68.1% (inactive)"

[[record]]
smiles_structure = "CC1(C)CC(=O)c2c(ccc(C(=O)C[C@@H](N)CO)c2N)O1"
measured = "29.5% (inactive)"

[[record]]
smiles_structure = "CC(C)C1=NOC(=O)C1=Cc1cn(-c2ccccc2)nc1-c1cccc([N+](=O)[O-])c1"
measured = "84.5% (inactive)"

[[record]]
smiles_structure = "CC(C)C1=NOC(=O)C1=Cc1cn(-c2cccnc2)nc1-c1ccccc1"
measured = "92.6% (inactive)"

[[record]]
smiles_structure = "Cc1ccc(S(=O)(=O)Oc2ccc([N+](=O)[O-])cc2[N+](=O)[O-])cc1"
measured = "94.5% (inactive)"


----------
Test system: ACHN renal
test summary: NCI-60 one-dose screen, 48 h
condition details: 10 µM unless noted
Compounds without any hit were thinned out: in the full panel of roughly 83,000, 20% have a hit. Active and inactive are the calls of the source. Rule for the calls: active = growth percent below 10; inactive = the rest.
Classes used: active, inactive

[[record]]
compound = "CCN(CC)CCCNCc1cc(-c2ccccc2)nc2ccccc12"
group_label = "inactive"

[[record]]
compound = "C/C=C/C1OC23CCCCC2C(C#N)(C(=N)O3)C1(C#N)C#N (centres undefined)"
group_label = "inactive"

[[record]]
compound = "COc1cc2c(cc1OCCCCCOc1ccc(-n3c(C)nc4ccccc4c3=O)cc1)N=C[C@@H]1CCCN1C2=O"
group_label = "active"

[[record]]
compound = "COc1cc(-c2nc(SCCC(C)C)nc(Nc3ccc(S(N)(=O)=O)cc3)c2C#N)cc(OC)c1OC"
group_label = "inactive"

[[record]]
compound = "O=C1NC(=O)c2cc([N+](=O)[O-])cc3cccc1c23"
group_label = "inactive"

[[record]]
compound = "CC(C)C1=NOC(=O)C1=Cc1cn(-c2ccco2)nc1-c1ccccc1"
group_label = "inactive"

[[record]]
compound = "Cc1cc(N2CCCCCC2)nc(N2CCN(CC(=O)Nc3ccc4c(ccn4Cc4ccccc4)c3)CC2)n1"
group_label = "inactive"

[[record]]
compound = "COc1cc(/C=C/C(=O)/C=C/c2ccc(-n3ccnc3)cc2)ccc1O"
group_label = "inactive"

[[record]]
compound = "CC1(C)CC[C@]2(C(N)=O)CC[C@]3(C)C(=CC[C@@H]4[C@@]5(C)C/C(=C/c6cccnc6)C(=O)C(C)(C)[C@@H]5CC[C@]43C)[C@@H]2C1"
group_label = "active"

[[record]]
compound = "NC1=NC(=O)NC1(c1ccccc1)c1ccccc1"
group_label = "inactive"

[[record]]
compound = "Nc1ccc(NC(=O)c2ccccc2)c2c1C(=O)c1ccccc1C2=O"
group_label = "inactive"

[[record]]
compound = "Nc1nc(Nc2ccccc2)c2ncn(Cc3cc4c(cc3Br)OCO4)c2n1"
group_label = "inactive"

[[record]]
compound = "Cn1cc(-c2noc(-c3cn(C)c4ncc(F)cc34)n2)c2cc(Cl)ccc21"
group_label = "inactive"

[[record]]
compound = "N/C(=N\\c1nc2ccccc2[nH]1)NC(=O)Cc1cccc2ccccc12"
group_label = "inactive"

